# Method Description: chemical genetic growth profiling, strain panel (AID 1159580);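 also: tested at 20 µM; growth read once vehicle control cultures reached saturation at 30 °C; lower values mean less growth of the strain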
# Measurement Setup: S. cerevisiae deletion strains, growth OD, locus YDR137W, strain rgp1
About 2,000 (36%) of roughly 5,500 compounds were called active. Not shown: some 18% with an inconclusive outcome. Rule as the data show it: active = normalized growth mostly below about 0.91 (no sharp cut-off); inconclusive = no clear call, values can overlap the other calls; inactive = mostly above about 0.92. The list shows a part of the results.
Outcome (select one): active, inactive

Take a look at these entries with their results.
# Molecule, Classification
rows = [
    ("CC(CCC(=O)O)[C@H]1CCC2C3CC[C@@H]4CCCC[C@]4(C)C3CC[C@@]21C (some centres not stated)", "inactive"),
    ("C[C@H](CCC(=O)O)[C@H]1CCC2C3C(CC[C@@]21C)[C@@]1(C)CC[C@@H](O)C[C@H]1C[C@@H]3O (some centres not stated)", "active"),
    ("CC[C@H](CCC(C)[C@H]1CCC2C3CCC4C[C@@H](O)CC[C@]4(C)C3CC[C@@]21C)C(C)C (some centres not stated)", "inactive"),
    ("COC(=O)CCC(C)[C@H]1CCC2C3C(C[C@H](O)[C@@]21C)[C@@]1(C)CC[C@@H](O)C[C@H]1C[C@H]3O (some centres not stated)", "inactive"),
    ("CC(C)CCCC(C)C1CCC2C3CC[C@H]4CCCC[C@]4(C)C3CC[C@]12C (some centres not stated)", "inactive"),
    ("CSc1ccc2c(c1)N(CCC1CCCCN1C)c1ccccc1S2 (configuration not stated)", "active"),
]

How was NC(=O)c1ncn(C2O[C@H](CO)[C@@H](O)[C@H]2O)c1N (some centres not stated) classified in this test?
inactive

Each molecule tested received a call. Report the one for CC(CCC(=O)O)[C@H]1CCC2C3C(C[C@H](O)[C@@]21C)[C@@]1(C)CC[C@@H](O)C[C@H]1C[C@H]3O (some centres not stated) .
inactive

Each molecule tested received a call. Report the one for CC(=O)O[C@H]1C[C@@H](OC(C)=O)C(C)(C)C2CC(=O)[C@]3(C)C(CC[C@@]4(C)[C@H](c5ccoc5)OC(=O)[C@H]5O[C@]543)[C@]21C (some centres not stated) .
inactive

Origin of the recorded values: PubChem BioAssay AID1159580
